The origin of these recorded values is the supplement of paper PMC4858399.

# Tested on: Caenorhabditis elegans N2
# experimental.protocol: lowest effective concentration for larval growth inhibition (size below effect threshold); higher = less potent
# condition.summary: exposure time 48 h
Structures can show the parent of a compound that is named as a salt.

[
  {
    "compound": "CC(C)COC(=O)CCCCC(=O)OCC(C)C [Diisobutyl adipate]",
    "value.operator": "=",
    "lowest effective concentration, µM": 100
  },
  {
    "compound": "OC[C@@H](O)[C@@H](O)[C@H](O)[C@H](O)CO",
    "value.operator": "=",
    "lowest effective concentration, µM": 200
  },
  {
    "compound": "CCCCCCCCCCCCN1CCCC1=O",
    "value.operator": "≤",
    "lowest effective concentration, µM": 0.5
  },
  {
    "compound": "CO/C=C(/C(=O)OC)c1ccccc1COc1cccc(C(F)(F)F)n1",
    "value.operator": "=",
    "lowest effective concentration, µM": 50
  },
  {
    "compound": "O=C1OC(c2ccc(O)cc2)(c2ccc(O)cc2)c2ccccc21",
    "value.operator": "=",
    "lowest effective concentration, µM": 200
  },
  {
    "compound": "CCCCCCCCCCCCCCCCOS(=O)(=O)O [Sodium cetyl sulfate]",
    "value.operator": "=",
    "lowest effective concentration, µM": 50
  },
  {
    "compound": "CCC(C)(C)C(=O)OC1=C(c2ccc(Cl)cc2Cl)C(=O)OC12CCCCC2",
    "value.operator": "=",
    "lowest effective concentration, µM": 50
  },
  {
    "compound": "O=S(=O)(O)C(F)(F)C(F)(F)C(F)(F)C(F)(F)C(F)(F)C(F)(F)C(F)(F)C(F)(F)F [Heptadecafluorooctanesulfonic acid potassium salt]",
    "value.operator": "≤",
    "lowest effective concentration, µM": 0.5
  },
  {
    "compound": "CNC(=O)Oc1cccc2ccccc12",
    "value.operator": ">",
    "lowest effective concentration, µM": 200
  },
  {
    "compound": "CC1(C)CC(N=C=O)CC(C)(CN=C=O)C1 (mixture of isomers) [Isophorone diisocyanate, mixture of isomers]",
    "value.operator": "=",
    "lowest effective concentration, µM": 100
  },
  {
    "compound": "COc1cc(C=O)ccc1O [4-Hydroxy-3-methoxy-benzaldehyde]",
    "value.operator": ">",
    "lowest effective concentration, µM": 200
  },
  {
    "compound": "CN(C)CCCN1c2ccccc2Sc2ccc(Cl)cc21 [Chlorpromazine hydrochloride]",
    "value.operator": "=",
    "lowest effective concentration, µM": 50
  },
  {
    "compound": "CCCCCCOC(=O)c1ccccc1C(=O)OCCCCCC [Dihexyl phthalate]",
    "value.operator": "=",
    "lowest effective concentration, µM": 200
  },
  {
    "compound": "O=S(=O)(O)c1ccc(N=Nc2c(O)ccc3cc(S(=O)(=O)O)ccc23)cc1",
    "value.operator": ">",
    "lowest effective concentration, µM": 200
  },
  {
    "compound": "Fc1ccc(Oc2ccnc3cc(Cl)cc(Cl)c23)cc1",
    "value.operator": "≤",
    "lowest effective concentration, µM": 0.5
  },
  {
    "compound": "CCN(CC)C(=O)SCc1ccc(Cl)cc1",
    "value.operator": "=",
    "lowest effective concentration, µM": 50
  },
  {
    "compound": "OC12N=C(c3ccccc3)SC1Cc1cc(Cl)ccc12 (centres undefined)",
    "value.operator": "=",
    "lowest effective concentration, µM": 5
  },
  {
    "compound": "Cc1ccc(N)cc1N",
    "value.operator": "=",
    "lowest effective concentration, µM": 200
  },
  {
    "compound": "Cc1ccc(/N=C/N(C)/C=N/c2ccc(C)cc2C)c(C)c1",
    "value.operator": "=",
    "lowest effective concentration, µM": 200
  }
]
